These measurements were taken from patent US8193213B2.

# Test system: Candida albicans
# methodNotes: Antifungal susceptibility testing (NCCLS, MIC/MFC) against C. albicans
# Format: cell-based
# conditionDetails: C. albicans; lowest concentration that kills >= 98% of the cells in the well
Recorded Lowest MFC, one value per entry.
Give the quantity in µg/mL, number only.

Below, 3 compounds whose answers are already recorded.
CCCOC(=O)c1ccc(C2c3cc(C)ccc3C3CN(CC)CCC32)cc1.Cl (racemic) [Compound 4587-062] | 20
CCN1CCC2C(C1)c1ccc(C)cc1C2c1ccc(C)cc1.Cl (stereo not shown) [Compound 4587-002l] | 100
CCN1CCC2C(C1)c1ccc(C)cc1C2c1ccc(C)cc1.Cl (stereo not shown) [Compound 4587-003] | 75

Now consider the entry below.
GET /values?readout=Lowest MFC&system=Candida albicans&item= CCc1ccc2c(c1)[C@@H](c1ccc(C(=O)OC)cc1)[C@@H]1CCN(CC)C[C@H]21.Cl (racemic) [Compound 4587-064] 100

###

# Tested on: Aspergillus fumigatus
# methodNotes: Antifungal susceptibility testing (NCCLS, MIC/MFC) against A. fumigatus
# Assay type: cell-based
# conditionDetails: A. fumigatus; lowest concentration that kills >= 98% of the cells in the well
Decide using Lowest MFC alone. Strictly below 20 µg/mL: rule met. Equal to or above 20 µg/mL: rule not met.

CCN1CCC2C(C1)c1ccc(C)cc1C2c1ccc(C)cc1.Cl (stereo not drawn) [Compound 4587-002l] | rule not met
CCN1CCC2=C(c3ccc(OC)cc3)c3cc(C)ccc3C2C1.Cl (stereo not drawn) [Compound 4587-082] | rule not met
CCN1CCC2C(C1)c1ccc(C)cc1C2c1ccc(C)cc1.Cl (stereo not drawn) [Compound 4587-003] | rule not met
CCCOC(=O)c1ccc(C2c3cc(C)ccc3C3CN(CC)CCC32)cc1.Cl (racemic) [Compound 4587-062] | rule met
CCc1ccc2c(c1)[C@@H](c1ccc(C(=O)OC)cc1)[C@@H]1CCN(CC)C[C@H]21.Cl (racemic) [Compound 4587-064] | rule not met

Strictly below 20 µg/mL: is that where Lowest MFC of CCN1CCC2C(C1)c1ccc(C)cc1C2c1ccc(C)cc1.Cl (stereo not drawn) [Compound 4587-002d] sits? rule not met

###

# Tested on: adult male Swiss mice
# methodNotes: Antispermatogenic screen: single gavage dose to male mice, testes weight and Spermatogenic Index at 72 h
# Format: in vivo
# conditionDetails: racemic compounds; 3 mg/kg single gavage dose; day 3 (72 h); vehicle 90% water, 7% Tween20, 3% ethanol
recordedEndpoint: SI change (%) (Spermatogenic Index, % change from vehicle control) (%*)
Give the quantity in %*, number only.

Look up SI change (%) (Spermatogenic Index, % change from vehicle control) for this compound: CCN1CC[C@@H]2[C@@H](c3ccc(C(=O)OC)cc3)c3cc(C)c(I)cc3[C@@H]2C1.Cl (racemic) −69

Now consider CCN1CC[C@@H]2[C@@H](c3ccc(C(=O)O)cc3)c3cc(C)c(Br)cc3[C@@H]2C1.Cl (racemic) and answer again. −69

Now consider CCN1CC[C@@H]2[C@@H](c3ccc(C(=O)O)cc3)c3cc(C)c(I)cc3[C@@H]2C1.Cl (racemic) and answer again. −66

Now consider CCN1CC[C@@H]2[C@@H](c3ccc(C(=O)O)cc3)c3cc(C)c(Cl)cc3[C@@H]2C1.Cl (racemic) and answer again. −66
